Hey, just so you know, these numbers are from patent US20220025029A1.

Biological target: T1, natural Fel d1 (Indoor Biotech, #NA-FD1-2) (cat, UniProt P30438 23-92; P30440 18-109)
T1 construct: Bought natural heterodimeric glycoprotein, chains linked by disulfide bonds; also called nFel d1; nFel d 1
T1 sequence (P30438 other isoform, or with tags, fused parts or gaps, chain 1 of 2): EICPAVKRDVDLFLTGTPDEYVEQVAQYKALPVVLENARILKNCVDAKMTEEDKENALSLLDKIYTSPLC
T1 sequence (P30440 18-109, chain 2 of 2): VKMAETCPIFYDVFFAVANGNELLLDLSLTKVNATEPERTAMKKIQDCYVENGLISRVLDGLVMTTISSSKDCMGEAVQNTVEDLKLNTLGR
Test: Octet BLI sandwich; nFel d1 pre-complexed with captured mAb-1 H4H1232N (competitor); self-competition value subtracted
PARAMETER: Response of mAb-2 Binding to nFel d1 pre-complexed with mAb-1 (nm)
Kindly answer with a numeric value in nm, unit omitted.

Examples from the recorded data:
Lab book: Response of mAb-2 Binding to nFel d1 pre-complexed with mAb-1 of H4H1616N (antibody, human IgG4, V domains shown, human IgG4 Fc (H4H prefix)) VH: EVELLESGGGLVQPGGSLRLSCAASGFTFSSYAMSWVRQAPGKGLEWVSSISGRVGSTHFADSVKGRFTFSRDNSKNTLYLQLSSLRAEDTAVYYCARSRGAAYFDYWGQGTLVTVSS VL: DIQMTQSPSSLSASVGDRVTITCQANQDISNFLNWYQQRPGKAPNLLIYAASNLETGVPSRFSGSGSGTDFTFTISSLQPEDIATYYCQHYDNFPFTFGPGTKVDIK noted as 0.54

Entry H4H2645P (antibody, human IgG4, V domains shown, human IgG4 Fc (H4H prefix)) VH: EVQLVESGGGLVQPGGSLRLSCAASGFTFSTYAMHWVRQAPGKGLEWVSSISGRGRNSDHADSVKGRFTISRDNSKNTLYLQMNSLRAEDTAVYYCARTEYFHHWGQGTLVTVSS VL: DIQMTQSPSSLSASVGDRITITCRASQDINNYLAWFQQKPGKAPKSLIYGASSLQSGVPSKFSGSGSGTDFTLTISSLQPEDFATYYCQQYSSYPFTFGPGTKVDIK , Response of mAb-2 Binding to nFel d1 pre-complexed with mAb-1 reported as 0.75

// Response of mAb-2 Binding to nFel d1 pre-complexed with mAb-1 lookup, binder = H4H1232N (antibody, human IgG4, V domains shown, human IgG4 Fc (H4H prefix)) VH: EVQLVESGGGLVKPGGSLRLSCAASGFTFRNYNINWVRQAPGKGLEWVSLISGSSSYIYYADSVKGRFTVSRDNAKNSLYLQMNSLRAEDTAVYYCARRTLSYYVMDVWGQGTTVTVSS VL: DIQVTQSPSPLSASVGDRVTITCRASQGISNYLAWYQQKPGRVPQLLIYAASTLQSGVPSRFSGSGSGTDFTLTISSLQPEDVATYYCQKYNSAPYTFGQGTKLEIK , result: 0

Now turn to the next binder.
Entry H4H2864P (antibody, human IgG4, V domains shown, human IgG4 Fc (H4H prefix)) VH: EVQLVESGGGLAQPGGSLRLSCAASGFTFNNYAMTWVRQAPGKGLDWVSAISDSGRSTFSADSVKGRFTISRDNSKNTLYLQMDSLRAEDTALYYCAKHRNWNYPVFDYWGQGTLVTVSS VL: DIQLTQSPSFLSASVGDRVTITCWASQGISSYLAWYQQKPGKAPKLLIYSASTLQSGVPSRFSGSGSGTEFTLTISSLQPEDFATYYCQQLNSYPFTFGPGTKVDIK — recorded Response of mAb-2 Binding to nFel d1 pre-complexed with mAb-1 = 0.71
